Data provenance: the supplement of paper PMC8728848

target: Neu5Ac(a2-6)Gal(b1-4)GlcNAc(b1-2)Man(a1-3)[Neu5Ac(a2-6)Gal(b1-4)GlcNAc(b1-2)Man(a1-6)]Man(b1-4)GlcNAc(b1-4)GlcNAc; test: glycan array binding signal (z-score within array); higher = stronger binding; details: glycan notation: IUPAC condensed, linker removed
This is one part of a sample in which the strongest signals are shown more often than they occur.
Parameter measured: glycan array binding signal (z-score)
Respond numerically, and do not add a unit to the figure.

binder="Dectin-1 (Mus musculus), Q6QLQ4 (protein) GHNSGRNPEEKDNFLSRNKENHKPTESSLDEKVAPSKASQTTGGFSQPCLPNWIMHGKSCYLFSFSGNSWYGSKRHCSQLGAHLLKIDNSKEFEFIESQTSSHRINAFWIGLSRNQSEGPWFWEDGSAFFPNSFQVRNTAPQESLLHNCVWIHGSEVYNQICNTSSYSICEKEL" observed_measurement=-0.091
binder="DrGRIFIN (Danio rerio), Q6DGJ1 (protein) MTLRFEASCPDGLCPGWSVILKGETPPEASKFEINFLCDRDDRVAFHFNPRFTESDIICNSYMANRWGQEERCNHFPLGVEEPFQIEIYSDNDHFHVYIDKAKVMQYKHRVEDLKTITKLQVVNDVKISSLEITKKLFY" observed_measurement=-0.171

From here, focus on the item given below.
Qu. Look at this binder and give its reported glycan array binding signal (z-score). Gal 10 (Homo sapiens), Q05315 (protein) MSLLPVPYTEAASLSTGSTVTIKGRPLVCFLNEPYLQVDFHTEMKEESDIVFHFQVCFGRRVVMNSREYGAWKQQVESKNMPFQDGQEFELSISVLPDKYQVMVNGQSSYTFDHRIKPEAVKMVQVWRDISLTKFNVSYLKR
Ans. 0.509
